The measurements presented in this section are drawn from paper PMC5540273.

System: ACVR2B
Details: concentration: 1 μM,replicates: in singlicate; n = 1;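 note: KINOMEscan kinase panel screen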
In plain terms, low %Inh, meaning strictly below 2%, gives class 1, and everything else gives class 0.

{"compound": "Cc1nnc(-c2ccc3occ(-c4ccc(S(C)=O)cc4)c3n2)o1 (stereo not shown)", "measured_on": "ACVR2B", "label_value": "class 1"}
{"compound": "CS(=O)(=O)Nc1ccc(-c2ccnc3[nH]ccc23)cc1", "measured_on": "ACVR2B", "label_value": "class 1"}

Task: For COc1cccc(CNC(=O)NC2CCN(c3ccnc(Nc4cc(OC)c(OC)c(OC)c4)n3)C2)c1 (stereo not shown) , is the recorded %Inh below the cut-off of 2%?
Result: class 0

Task: For CN1CCN(CCNc2nc3cc(Oc4ccc(NC(=O)Nc5cc(C(F)(F)F)ccc5F)cc4)ccc3[nH]2)CC1.Cl.Cl , is the recorded %Inh below the cut-off of 2%?
Result: class 1

====

Tested on: PRKCQ
Details: concentration: 1 μM,replicates: in singlicate; n = 1
assay_metric: %Inh (%)
Give the quantity in %, number only.

{"compound": "Cc1ccn2nc(-c3ccc(F)cc3)c(-c3ccncc3)c2c1.Cl [GW457859]", "endpoint_unit": "%", "%Inh": 8}
{"compound": "CC(=O)Nc1ccc(-c2cc3ncnc(SCC(=O)O)c3s2)cc1", "endpoint_unit": "%", "%Inh": 18}
{"compound": "NC(=O)Nc1sc(-c2ccc(F)cc2)cc1C(N)=O [GW789449]", "endpoint_unit": "%", "%Inh": 35}
{"compound": "Cn1ccc2ncnc(Oc3ccc(NC(=O)Nc4cccc(C(F)(F)F)c4)c(Cl)c3)c21", "endpoint_unit": "%", "%Inh": 7}

Task: Consider the compound shown here: COc1cc2ncn(-c3cc(OCC4CCCCC4)c(C(N)=O)s3)c2cc1OC [GSK204559] What is its recorded %Inh?
Result: 32

====

Each entry below carries its recorded %Inh.
System: ADCK3
Construct: gene CABC1
Details: concentration: 1 μM,replicates: in singlicate; n = 1
I'd appreciate it if you wrote the number followed by its unit.

{"compound": "CCNCC(Cc1ccccc1)NC(=O)c1cc(Br)c(-c2ccnc3[nH]ccc23)s1.Cl.Cl (stereo not drawn) [GSK1383280]", "%Inh": "12%"}

Task: Consider the compound shown here: O=C(NCC1CC1)c1ccc(-c2cc(C(=O)NC3CC3)ccc2F)cc1 [GW810445] What is its recorded %Inh?
Result: 0%

Task: Consider the compound shown here: Cc1cccc(-c2nc(Nc3ccncc3)c3sccc3n2)n1 [GW869641] What is its recorded %Inh?
Result: 0%

Task: Consider the compound shown here: Cc1cccc2c(-c3ccncc3)c(-c3ccc(F)cc3)nn12.Cl [GW461487] What is its recorded %Inh?
Result: 18%

Task: Consider the compound shown here: Cl.c1ccc(Oc2ccc(Nc3ccnc4cc(-c5ccc(CN6CCNCC6)o5)ccc34)cc2)nc1 [GW567142] What is its recorded %Inh?
Result: 0%

Task: Consider the compound shown here: Cn1cc(-c2cccc3c(N)c(C(N)=O)nnc23)cn1 What is its recorded %Inh?
Result: 15%

Task: Consider the compound shown here: COc1cc2ncn(-c3cc(OCC4CCCCC4)c(C(N)=O)s3)c2cc1OC [GSK204559] What is its recorded %Inh?
Result: 11%

Task: Consider the compound shown here: O=C(Nc1cccc(Oc2ccc3nccn3n2)c1)Nc1cccc(C(F)(F)F)c1 What is its recorded %Inh?
Result: 0%

Task: Consider the compound shown here: C[C@@H](Oc1cc(-n2cnc3ccc(-c4ccncc4)cc32)sc1C(N)=O)c1ccccc1Cl [GSK483724] What is its recorded %Inh?
Result: 52%

Task: Consider the compound shown here: COc1cccc(C2=C(Nc3cccc(Cl)c3)C(=O)NC2=O)c1 [SB-341556] What is its recorded %Inh?
Result: 24%

Task: Consider the compound shown here: CNC(=O)c1ccccc1Nc1nc(Nc2cccc(CS(C)(=O)=O)c2)ncc1C.O=CO [GSK1520489] What is its recorded %Inh?
Result: 0%

Task: Consider the compound shown here: CS(=O)(=O)c1cccc(CNc2nc(Nc3ccc4c(c3)[C@@H]3C[C@@H]4CNC3=O)ncc2C(F)(F)F)c1 What is its recorded %Inh?
Result: 0%

Task: Consider the compound shown here: C[C@@H](Oc1cc(-n2cnc3cc(-c4ccncc4)ccc32)sc1C(N)=O)c1ccccc1Cl [GSK479719] What is its recorded %Inh?
Result: 12%

Task: Consider the compound shown here: NC(=O)c1ccc(-c2cc3ncnc(SCC(=O)O)c3s2)cc1 What is its recorded %Inh?
Result: 25%

Task: Consider the compound shown here: FC(F)(F)c1cc(Br)cc(Nc2nccc(-c3cnn4ncccc34)n2)c1 [GW810578] What is its recorded %Inh?
Result: 10%
